B1: Hairpin Ribozyme (parent)
chain: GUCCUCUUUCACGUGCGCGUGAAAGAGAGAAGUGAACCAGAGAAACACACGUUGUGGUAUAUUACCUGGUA

- Variants of: B1
- assay-procedure: self-cleavage, relative activity (ratio to wild type); higher = more cleavage; co-transcriptional

variant-string: G25A A44C
self-cleavage: 0.139
//
variant-string: G15A U20C
self-cleavage: 0.864
//
variant-string: U5C A44G
self-cleavage: 0.147
//
variant-string: U9A A23C
self-cleavage: 0.501
//
variant-string: C3G A22U
self-cleavage: 0.246
//
variant-string: U53G A59G
self-cleavage: 0.114
//
variant-string: A23G U33C
self-cleavage: 0.0496
//
variant-string: A47G A59U
self-cleavage: 0.186
//
variant-string: U8A G19A
self-cleavage: 0.558
//
variant-string: C10U G29A
self-cleavage: 0.158
//
variant-string: A22G G29C
self-cleavage: 0.129
